Source: paper PMC3297592

molecular target: PI3Kα (p110α/p85α) (Homo sapiens); construct: commercial purified p110α/p85α heterodimer (Millipore); with Phosphatidylinositol 3-kinase regulatory subunit alpha; experiment: ADP-Glo kinase assay
Sequence (P42336 whole entry): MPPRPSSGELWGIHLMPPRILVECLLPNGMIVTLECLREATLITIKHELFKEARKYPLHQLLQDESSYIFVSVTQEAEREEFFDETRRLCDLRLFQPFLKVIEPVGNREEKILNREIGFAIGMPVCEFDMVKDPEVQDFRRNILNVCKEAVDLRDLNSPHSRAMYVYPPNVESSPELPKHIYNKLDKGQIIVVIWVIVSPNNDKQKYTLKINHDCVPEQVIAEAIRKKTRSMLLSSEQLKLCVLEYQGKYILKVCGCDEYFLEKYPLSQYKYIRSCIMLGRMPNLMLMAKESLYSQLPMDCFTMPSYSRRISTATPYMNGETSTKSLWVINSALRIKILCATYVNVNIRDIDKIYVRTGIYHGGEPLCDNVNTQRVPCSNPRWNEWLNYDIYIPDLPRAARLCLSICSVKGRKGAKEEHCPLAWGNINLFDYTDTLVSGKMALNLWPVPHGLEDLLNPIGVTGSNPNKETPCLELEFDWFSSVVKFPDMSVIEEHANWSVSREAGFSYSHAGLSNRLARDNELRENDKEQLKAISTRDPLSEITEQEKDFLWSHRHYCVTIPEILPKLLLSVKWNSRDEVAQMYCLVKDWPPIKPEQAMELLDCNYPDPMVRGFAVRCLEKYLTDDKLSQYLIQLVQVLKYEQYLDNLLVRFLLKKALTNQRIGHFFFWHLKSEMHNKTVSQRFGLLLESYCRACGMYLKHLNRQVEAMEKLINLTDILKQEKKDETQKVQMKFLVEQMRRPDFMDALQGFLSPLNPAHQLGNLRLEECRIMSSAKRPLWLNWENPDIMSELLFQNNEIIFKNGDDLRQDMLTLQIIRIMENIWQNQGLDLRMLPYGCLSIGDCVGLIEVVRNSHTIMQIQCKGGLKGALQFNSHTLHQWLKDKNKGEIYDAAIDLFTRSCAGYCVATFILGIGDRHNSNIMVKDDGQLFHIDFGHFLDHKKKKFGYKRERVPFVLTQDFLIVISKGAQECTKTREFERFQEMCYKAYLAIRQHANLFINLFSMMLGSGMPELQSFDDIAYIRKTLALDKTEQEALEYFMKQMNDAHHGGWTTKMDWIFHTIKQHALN
Sequence (P27986 2-724 partner): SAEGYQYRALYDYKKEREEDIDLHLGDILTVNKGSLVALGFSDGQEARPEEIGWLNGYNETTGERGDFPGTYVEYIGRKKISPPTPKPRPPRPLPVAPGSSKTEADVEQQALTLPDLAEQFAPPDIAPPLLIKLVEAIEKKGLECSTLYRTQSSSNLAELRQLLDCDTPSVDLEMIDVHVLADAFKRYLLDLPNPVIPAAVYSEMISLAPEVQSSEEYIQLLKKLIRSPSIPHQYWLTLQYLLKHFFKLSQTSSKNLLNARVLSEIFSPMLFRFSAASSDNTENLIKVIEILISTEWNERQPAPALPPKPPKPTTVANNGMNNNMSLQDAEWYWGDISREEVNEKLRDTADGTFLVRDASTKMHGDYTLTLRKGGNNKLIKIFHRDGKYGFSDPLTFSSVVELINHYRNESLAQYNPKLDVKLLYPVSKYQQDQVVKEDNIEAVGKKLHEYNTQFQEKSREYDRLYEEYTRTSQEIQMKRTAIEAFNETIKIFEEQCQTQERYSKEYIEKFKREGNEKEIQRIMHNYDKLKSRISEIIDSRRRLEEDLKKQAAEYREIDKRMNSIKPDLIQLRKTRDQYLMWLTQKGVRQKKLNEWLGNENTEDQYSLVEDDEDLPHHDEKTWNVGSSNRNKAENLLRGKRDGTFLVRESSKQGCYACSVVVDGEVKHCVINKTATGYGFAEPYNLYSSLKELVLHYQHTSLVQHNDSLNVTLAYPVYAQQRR
measurement-name: pIC50
By convention, pIC50 is the negative base-10 log of a molar concentration.

For this molecule ( "OCc1ccc(-c2ccc3ncnc(Nc4ccc(N5CCOCC5)cc4)c3c2)o1" ), measured pIC50 is 5.96
